Below, each of the compounds is paired with its reported MIC (CLSI Ref) value.
Test system: E. coli strains
Assay: CLSI overnight reference method, broth microdilution MIC
Assay type: cell-based
Conditions: E. coli strain Clinical Sample 2; unit assumed

| smiles-entry | measured-on | sign-qualifier | MIC (CLSI Ref), µg/mL |
| --- | --- | --- | --- |
| C[C@@H](O)[C@H]1C(=O)N2C(C(=O)O)=C(S[C@@H]3CN[C@H](C(=O)Nc4cccc(C(=O)O)c4)C3)[C@H](C)[C@H]12 | E. coli strains | = | 0.015 |
| C[C@H]1[C@H](NC(=O)/C(=N\OC(C)(C)C(=O)O)c2csc(N)n2)C(=O)N1S(=O)(=O)O | E. coli strains | = | 0.5 |
| NC[C@H]1O[C@H](O[C@H]2[C@H](O)[C@@H](O[C@H]3O[C@H](CO)[C@@H](O)[C@H](N)[C@H]3O)[C@H](N)C[C@@H]2N)[C@H](N)C[C@@H]1O | E. coli strains | = | 1 |
| CC1(C)S[C@@H]2[C@H](NC(=O)[C@H](N)c3ccccc3)C(=O)N2[C@H]1C(=O)O | E. coli strains | > | 32 |
